Where do the numbers come from? From ChEMBL document CHEMBL1147023.

# Assay overview: Plasma half life in ferret at 5 mg/kg, po
# Type: ADME, organism-based, Mustela putorius furo
# Parameters: dose 5 mg/kg, route oral
Measured endpoint: half-life (h)

{"Structure notation": "COc1ccc([C@H](CN(C)C)[Si]2(O)CCCCC2)cc1", "Measured endpoint": "half-life", "Unit descriptor": "h", "Numeric value": 1.1}

###

# Assay overview: Cmax in ferret at 5 mg/kg, po
# Format: ADME, organism-based, Mustela putorius furo
# Design: dose 5 mg/kg, route oral
# Condition label: in vivo

{"Structure notation": "COc1ccc([C@H](CN(C)C)[Si]2(O)CCCCC2)cc1", "Cmax [ng/mL]": 225}

###

# Tested system: Sodium-dependent serotonin transporter (Homo sapiens)
# Sequence (P31645 whole entry): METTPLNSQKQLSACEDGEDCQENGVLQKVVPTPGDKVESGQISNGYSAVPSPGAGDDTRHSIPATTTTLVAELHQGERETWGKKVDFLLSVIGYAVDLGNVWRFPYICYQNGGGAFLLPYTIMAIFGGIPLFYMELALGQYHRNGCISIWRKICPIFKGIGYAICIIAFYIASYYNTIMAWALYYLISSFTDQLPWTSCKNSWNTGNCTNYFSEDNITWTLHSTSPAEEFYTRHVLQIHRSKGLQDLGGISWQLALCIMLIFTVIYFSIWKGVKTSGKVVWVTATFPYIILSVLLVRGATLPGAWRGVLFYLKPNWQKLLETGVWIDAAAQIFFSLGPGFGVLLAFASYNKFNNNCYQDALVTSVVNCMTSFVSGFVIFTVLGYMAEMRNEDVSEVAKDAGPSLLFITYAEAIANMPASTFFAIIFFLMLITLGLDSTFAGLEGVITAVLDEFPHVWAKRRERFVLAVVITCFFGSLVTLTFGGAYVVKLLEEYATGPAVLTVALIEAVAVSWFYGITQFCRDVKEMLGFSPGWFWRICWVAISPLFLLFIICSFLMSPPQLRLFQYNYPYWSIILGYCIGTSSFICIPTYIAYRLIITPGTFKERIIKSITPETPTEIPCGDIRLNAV
# Assay overview: Inhibition of serotonin reuptake at human recombinant serotonin transporter

{"Structure notation": "COc1ccc([C@H](CN(C)C)[Si]2(O)CCCCC2)cc1", "Tested system": "Sodium-dependent serotonin transporter (Homo sapiens)", "IC50, µM": 4.2}
